This listing pairs compounds with measured IC50.
target-system: BTK (Homo sapiens (Human))
Sequence (Q06187 whole entry): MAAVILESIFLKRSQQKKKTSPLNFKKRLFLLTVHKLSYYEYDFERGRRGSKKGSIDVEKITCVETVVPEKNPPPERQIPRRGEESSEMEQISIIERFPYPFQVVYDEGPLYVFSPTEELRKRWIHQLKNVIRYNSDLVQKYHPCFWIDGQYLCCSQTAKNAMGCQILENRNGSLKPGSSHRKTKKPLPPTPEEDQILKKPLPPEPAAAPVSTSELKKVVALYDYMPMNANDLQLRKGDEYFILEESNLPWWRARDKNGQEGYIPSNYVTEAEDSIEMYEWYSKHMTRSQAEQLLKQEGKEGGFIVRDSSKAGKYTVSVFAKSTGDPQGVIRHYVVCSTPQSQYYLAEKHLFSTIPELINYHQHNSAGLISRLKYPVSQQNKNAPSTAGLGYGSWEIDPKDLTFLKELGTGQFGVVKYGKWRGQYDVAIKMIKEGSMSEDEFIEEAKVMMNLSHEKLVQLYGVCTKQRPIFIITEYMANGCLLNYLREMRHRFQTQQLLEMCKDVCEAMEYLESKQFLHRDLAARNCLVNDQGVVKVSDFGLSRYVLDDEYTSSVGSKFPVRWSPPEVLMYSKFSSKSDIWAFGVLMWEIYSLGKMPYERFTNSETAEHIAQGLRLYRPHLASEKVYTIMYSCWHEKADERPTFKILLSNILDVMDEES
assay-info: BTK kinase test (33P-ATP filter binding)
Assay type: biochemical
run-parameters: Table 1; final ATP 5 μM, 120 minutes at room temperature

{"columns": ["compound", "target-system", "IC50 [nM]"],
 "data": [
  ["C=CC(=O)N1CCC[C@H](c2nn(-c3ccc(Oc4cc(F)cc(F)c4F)cc3)c3cncc(F)c23)C1 (single isomer, unassigned) [Compound 4B]", "BTK (Homo sapiens (Human))", 98.1],
  ["C=CC(=O)N1CCC[C@@H](c2nn(-c3ccc(Oc4cccc(F)c4F)cc3)c3cncc(F)c23)C1 (single isomer, unassigned) [Compound 5A]", "BTK (Homo sapiens (Human))", 31.8],
  ["C=CC(=O)N1CCO[C@H](c2nn(-c3ccc(Oc4c(F)cccc4F)cc3)c3cncc(F)c23)C1 [Compound 3B]", "BTK (Homo sapiens (Human))", 2.7]
]}
